Hey, just so you know, these numbers are from the kinase profiling compilation of Christmann-Franck et al. (2016).

molecular target: EIF2AK2 (human) (UniProt P19525); assay: KINOMEscan competition binding; conditions: compound 10.0 µM
Sequence (P19525 whole entry, looked up): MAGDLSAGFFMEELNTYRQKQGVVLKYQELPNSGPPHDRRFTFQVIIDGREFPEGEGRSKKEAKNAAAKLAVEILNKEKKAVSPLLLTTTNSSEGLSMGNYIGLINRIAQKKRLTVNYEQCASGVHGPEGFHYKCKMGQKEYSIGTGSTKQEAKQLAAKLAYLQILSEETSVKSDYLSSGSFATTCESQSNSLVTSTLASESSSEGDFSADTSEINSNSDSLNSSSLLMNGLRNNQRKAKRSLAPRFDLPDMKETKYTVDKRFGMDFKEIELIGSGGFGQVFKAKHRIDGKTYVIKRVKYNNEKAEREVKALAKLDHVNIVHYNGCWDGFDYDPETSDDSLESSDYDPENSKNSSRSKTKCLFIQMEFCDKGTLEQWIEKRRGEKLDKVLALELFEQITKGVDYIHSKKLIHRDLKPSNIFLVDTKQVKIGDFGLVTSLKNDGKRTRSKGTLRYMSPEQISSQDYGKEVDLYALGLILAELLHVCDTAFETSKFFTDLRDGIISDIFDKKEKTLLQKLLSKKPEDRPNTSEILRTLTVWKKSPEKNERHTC
Entries annotated with measured kinase still bound, per cent of control
Readout Name: kinase still bound, per cent of control

1) C=CC(=O)Nc1cccc(Oc2nc(Nc3ccc(N4CCN(C)CC4)cc3OC)ncc2Cl)c1 :: 100%
2) O=C(O)c1ccc(Nc2ncc3c(n2)-c2ccc(Cl)cc2C(c2c(F)cccc2F)=NC3)cc1 :: 100%
3) Cc1ccc(NC(=O)c2cccc(C(C)(C)C#N)c2)cc1Nc1ccc2ncn(C)c(=O)c2c1 :: 75%
4) Cc1ccc(C(=O)Nc2cccc(C(F)(F)F)c2)cc1Nc1cncc(C(N)=O)c1 :: 100%
5) O=C(NOC[C@H](O)CO)c1ccc(F)c(F)c1Nc1ccc(I)cc1F :: 100%
6) CCCS(=O)(=O)Nc1ccc(F)c(C(=O)c2c[nH]c3ncc(-c4ccc(Cl)cc4)cc23)c1F :: 81%
7) Cn1c(=O)n(-c2ccc(C(C)(C)C#N)cc2)c2c3cc(-c4cnc5ccccc5c4)ccc3ncc21 :: 100%
8) C=CC(=O)Nc1cc(NC(=O)c2ccc(C)c(NC(=O)c3ccno3)c2)cc(C(F)(F)F)c1 :: 100%
9) Cc1ccc2nc(NCCN)c3ncc(C)n3c2c1 :: 100%

###

biological target: PIK3CD (human); experiment: KINOMEscan competition binding; details: compound 10.0 µM
Readout Name: kinase still bound, per cent of control (%)

1) OCCCNc1cc(-c2ccnc(Nc3cccc(Cl)c3)n2)ccn1 :: 100
2) CCC(=O)N1CCN(c2ccc(-n3c(=O)ccc4cnc5ccc(-c6cnc7ccccc7c6)cc5c43)cc2C(F)(F)F)CC1 :: 51
3) Cc1ccc(NC(=O)c2cccc(C(C)(C)C#N)c2)cc1Nc1ccc2ncn(C)c(=O)c2c1 :: 99
4) C=CC(=O)Nc1cc(NC(=O)c2ccc(C)c(NC(=O)c3ccno3)c2)cc(C(F)(F)F)c1 :: 100
5) C=CC(=O)Nc1cccc(Oc2nc(Nc3ccc(N4CCN(C)CC4)cc3OC)ncc2Cl)c1 :: 100

###

system: EGFR (human), P00533 [746-750 del]; experiment: KINOMEscan competition binding; conditions: compound 10.0 µM
Sequence (P00533 whole entry, looked up, stated change not applied): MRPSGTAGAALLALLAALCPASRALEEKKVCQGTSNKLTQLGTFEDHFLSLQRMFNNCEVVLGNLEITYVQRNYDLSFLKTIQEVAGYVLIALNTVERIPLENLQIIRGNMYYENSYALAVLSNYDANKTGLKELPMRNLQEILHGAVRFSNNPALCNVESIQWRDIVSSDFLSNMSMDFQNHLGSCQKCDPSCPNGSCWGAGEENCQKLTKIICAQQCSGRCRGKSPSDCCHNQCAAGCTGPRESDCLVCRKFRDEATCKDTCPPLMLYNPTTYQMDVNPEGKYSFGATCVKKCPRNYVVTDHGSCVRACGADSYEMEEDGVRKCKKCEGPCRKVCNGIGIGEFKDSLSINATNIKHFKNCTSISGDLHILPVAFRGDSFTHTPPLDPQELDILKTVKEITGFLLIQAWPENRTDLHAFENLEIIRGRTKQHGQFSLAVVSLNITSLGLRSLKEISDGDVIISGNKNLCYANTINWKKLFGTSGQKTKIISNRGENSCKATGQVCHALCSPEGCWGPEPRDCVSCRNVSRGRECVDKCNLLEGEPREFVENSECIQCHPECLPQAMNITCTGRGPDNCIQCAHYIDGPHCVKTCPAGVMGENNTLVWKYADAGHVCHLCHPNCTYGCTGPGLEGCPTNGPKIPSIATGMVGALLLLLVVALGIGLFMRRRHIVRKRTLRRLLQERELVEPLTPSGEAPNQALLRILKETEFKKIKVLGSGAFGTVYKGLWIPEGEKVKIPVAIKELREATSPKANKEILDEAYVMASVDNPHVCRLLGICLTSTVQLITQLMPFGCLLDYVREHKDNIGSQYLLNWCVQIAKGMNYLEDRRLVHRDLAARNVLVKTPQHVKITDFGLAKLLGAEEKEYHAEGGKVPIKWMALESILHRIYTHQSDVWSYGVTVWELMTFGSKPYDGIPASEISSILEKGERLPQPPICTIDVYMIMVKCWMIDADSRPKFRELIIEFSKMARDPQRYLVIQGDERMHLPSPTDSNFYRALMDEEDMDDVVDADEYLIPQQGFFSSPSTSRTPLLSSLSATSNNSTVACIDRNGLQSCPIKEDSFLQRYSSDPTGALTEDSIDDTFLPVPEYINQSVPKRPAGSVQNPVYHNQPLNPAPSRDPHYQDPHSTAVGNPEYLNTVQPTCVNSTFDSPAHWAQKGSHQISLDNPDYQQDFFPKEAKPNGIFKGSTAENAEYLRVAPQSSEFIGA
Measured kinase still bound, per cent of control accompanies every entry in the list below.
Readout Name: kinase still bound, per cent of control (%)

1. NC(=O)Nc1cc(-c2cccc(F)c2)sc1C(=O)N[C@@H]1CCCNC1 :: 4.2
2. O=c1cc(N2CCOCC2)oc2c(-c3cccc4c3sc3ccccc34)cccc12 :: 69
3. OCCCNc1cc(-c2ccnc(Nc3cccc(Cl)c3)n2)ccn1 :: 100
4. O=C1NC(=O)/C(=C/c2ccc3nccc(-c4ccncc4)c3c2)S1 :: 81
5. COc1cc(N2CCN(C)CC2)ccc1Nc1ncc2c(n1)N(C)c1ccccc1C(=O)N2C :: 100

###

kinase still bound, per cent of control values, listed per item
target: RIPK4 (human); assay: KINOMEscan competition binding; details: compound 10.0 µM
Readout Name: kinase still bound, per cent of control (%)

1. N#Cc1c(NC(=O)c2cccc3ccccc23)sc2c1CCCC2 :: 96
2. OCCCNc1cc(-c2ccnc(Nc3cccc(Cl)c3)n2)ccn1 :: 100
3. CN(C)C/C=C/C(=O)Nc1cccc(Nc2ncc3c(n2)N(C)c2ccccc2C(=O)N3C)c1 :: 1
4. CCN1CCN(Cc2ccc(Nc3ncc4c(n3)N(C)c3ccccc3C(=O)N4C)cc2C(F)(F)F)CC1 :: 12
5. Cc1cc([C@@H](C)Nc2ccccc2C(=O)O)c2nc(N3CCOCC3)cc(=O)n2c1 :: 99
6. COc1cc(C(=O)NC2CCN(C)CC2)ccc1Nc1ncc2c(n1)N(C1CCCC1)C(C)CC(=O)N2C (stereo unspecified) :: 100
7. C=CC(=O)Nc1cccc(Nc2nc(N[C@H]3CC[C@H](N(C)C)CC3)nc3c2ncn3C(C)C)c1 :: 72
8. CCCS(=O)(=O)Nc1ccc(F)c(C(=O)c2c[nH]c3ncc(-c4ccc(Cl)cc4)cc23)c1F :: 91
9. COc1cc(C(=O)NC2CCN(C)CC2)ccc1Nc1ncc2c(n1)N(C1CCCC1)CCC(=O)N2C(C)C :: 100
10. C[C@@H](Oc1cc(-n2cnc3ccc(CN4CCN(C)CC4)cc32)sc1C(N)=O)c1ccccc1C(F)(F)F :: 52
11. Cn1c(=O)n(-c2ccc(C(C)(C)C#N)cc2)c2c3cc(-c4cnc5ccccc5c4)ccc3ncc21 :: 100

###

# reported kinase still bound, per cent of control; entries follow
target: GRK4 (human) (UniProt P32298); experiment: KINOMEscan competition binding; details: compound 10.0 µM
Sequence (P32298 whole entry, looked up): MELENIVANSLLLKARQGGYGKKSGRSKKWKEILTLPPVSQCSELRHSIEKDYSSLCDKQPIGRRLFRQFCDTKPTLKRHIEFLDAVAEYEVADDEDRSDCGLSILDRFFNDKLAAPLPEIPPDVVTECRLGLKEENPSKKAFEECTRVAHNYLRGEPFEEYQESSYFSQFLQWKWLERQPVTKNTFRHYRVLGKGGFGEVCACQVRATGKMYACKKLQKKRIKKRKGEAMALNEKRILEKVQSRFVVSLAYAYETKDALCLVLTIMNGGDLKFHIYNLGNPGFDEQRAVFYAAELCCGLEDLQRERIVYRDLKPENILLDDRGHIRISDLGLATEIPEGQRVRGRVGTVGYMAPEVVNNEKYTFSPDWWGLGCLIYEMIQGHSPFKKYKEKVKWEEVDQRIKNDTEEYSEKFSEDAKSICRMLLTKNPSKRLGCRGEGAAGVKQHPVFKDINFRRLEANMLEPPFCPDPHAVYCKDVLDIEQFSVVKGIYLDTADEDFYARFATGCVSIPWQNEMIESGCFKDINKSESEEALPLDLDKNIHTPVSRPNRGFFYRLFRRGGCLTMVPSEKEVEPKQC
Readout Name: kinase still bound, per cent of control (%)

1. CCCS(=O)(=O)Nc1ccc(F)c(C(=O)c2c[nH]c3ncc(-c4ccc(Cl)cc4)cc23)c1F :: 100
2. COc1cc(N2CCN(C)CC2)ccc1Nc1nc(N)c(C(=O)c2c(Cl)cccc2Cl)s1 :: 85
3. CN(C)C/C=C/C(=O)Nc1cccc(Nc2ncc3c(n2)N(C)c2ccccc2C(=O)N3C)c1 :: 66
4. O=C1Nc2ccc(I)cc2/C1=C/c1cc(Br)c(O)c(Br)c1 :: 21
5. N#Cc1c(NC(=O)c2cccc3ccccc23)sc2c1CCCC2 :: 100

###

In this section we review reported kinase still bound, per cent of control values for a set of molecules.
target: CDK13 (human) (UniProt Q14004); test: KINOMEscan competition binding; conditions: compound 10.0 µM
Sequence (Q14004 whole entry, looked up): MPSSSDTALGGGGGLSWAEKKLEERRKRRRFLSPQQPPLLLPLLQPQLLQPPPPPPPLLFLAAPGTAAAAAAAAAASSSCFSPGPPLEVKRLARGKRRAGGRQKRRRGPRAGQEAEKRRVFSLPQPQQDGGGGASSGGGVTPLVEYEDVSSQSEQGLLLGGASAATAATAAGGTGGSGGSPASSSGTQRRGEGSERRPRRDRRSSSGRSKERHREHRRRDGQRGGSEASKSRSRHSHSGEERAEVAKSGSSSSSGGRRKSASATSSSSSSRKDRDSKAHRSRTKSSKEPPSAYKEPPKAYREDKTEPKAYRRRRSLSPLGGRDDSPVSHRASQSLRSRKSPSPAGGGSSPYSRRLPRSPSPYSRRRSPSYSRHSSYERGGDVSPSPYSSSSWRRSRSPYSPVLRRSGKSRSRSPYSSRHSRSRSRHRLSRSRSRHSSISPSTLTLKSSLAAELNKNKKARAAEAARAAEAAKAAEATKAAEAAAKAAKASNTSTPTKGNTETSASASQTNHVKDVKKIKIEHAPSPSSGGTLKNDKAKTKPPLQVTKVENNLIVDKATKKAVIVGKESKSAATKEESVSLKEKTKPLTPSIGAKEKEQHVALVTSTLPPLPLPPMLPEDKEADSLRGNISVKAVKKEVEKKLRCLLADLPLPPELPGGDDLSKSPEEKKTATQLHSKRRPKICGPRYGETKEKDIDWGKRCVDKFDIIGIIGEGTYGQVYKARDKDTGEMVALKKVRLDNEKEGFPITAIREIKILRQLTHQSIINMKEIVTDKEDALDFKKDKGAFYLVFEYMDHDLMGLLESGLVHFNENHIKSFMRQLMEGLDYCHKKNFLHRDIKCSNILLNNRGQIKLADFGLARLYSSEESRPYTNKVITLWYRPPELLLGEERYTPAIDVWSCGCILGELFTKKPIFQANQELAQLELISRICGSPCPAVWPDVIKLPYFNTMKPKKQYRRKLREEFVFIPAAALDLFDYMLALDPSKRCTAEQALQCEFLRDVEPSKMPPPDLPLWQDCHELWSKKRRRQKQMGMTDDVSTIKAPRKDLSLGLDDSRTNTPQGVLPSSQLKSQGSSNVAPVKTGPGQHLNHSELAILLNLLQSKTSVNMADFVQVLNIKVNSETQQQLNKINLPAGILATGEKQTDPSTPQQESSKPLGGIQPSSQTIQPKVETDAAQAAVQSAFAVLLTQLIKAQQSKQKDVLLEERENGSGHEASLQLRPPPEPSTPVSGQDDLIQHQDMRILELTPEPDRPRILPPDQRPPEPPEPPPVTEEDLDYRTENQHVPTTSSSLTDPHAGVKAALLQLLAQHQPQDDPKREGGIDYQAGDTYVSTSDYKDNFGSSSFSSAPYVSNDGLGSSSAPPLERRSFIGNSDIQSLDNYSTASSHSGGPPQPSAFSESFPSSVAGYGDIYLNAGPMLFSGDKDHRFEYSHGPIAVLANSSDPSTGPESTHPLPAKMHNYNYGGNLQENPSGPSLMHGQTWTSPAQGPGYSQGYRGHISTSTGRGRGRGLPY
Readout Name: kinase still bound, per cent of control (%)

1) O=C1Nc2ccc(I)cc2/C1=C/c1cc(Br)c(O)c(Br)c1 :: 100
2) O=C(NOC[C@H](O)CO)c1ccc(F)c(F)c1Nc1ccc(I)cc1F :: 84
3) O=C(NC1CC1)c1cccc(-c2ccc3c(NC(=O)C4CC4)n[nH]c3c2)c1 :: 82
4) CN(C)C/C=C/C(=O)Nc1cccc(Nc2ncc3c(n2)N(C)c2ccccc2C(=O)N3C)c1 :: 96
5) C=CC(=O)Nc1cc(NC(=O)c2ccc(C)c(NC(=O)c3ccno3)c2)cc(C(F)(F)F)c1 :: 100

###

target: AXL (human) (UniProt P30530); assay: KINOMEscan competition binding; conditions: compound 10.0 µM
Sequence (P30530 whole entry, looked up): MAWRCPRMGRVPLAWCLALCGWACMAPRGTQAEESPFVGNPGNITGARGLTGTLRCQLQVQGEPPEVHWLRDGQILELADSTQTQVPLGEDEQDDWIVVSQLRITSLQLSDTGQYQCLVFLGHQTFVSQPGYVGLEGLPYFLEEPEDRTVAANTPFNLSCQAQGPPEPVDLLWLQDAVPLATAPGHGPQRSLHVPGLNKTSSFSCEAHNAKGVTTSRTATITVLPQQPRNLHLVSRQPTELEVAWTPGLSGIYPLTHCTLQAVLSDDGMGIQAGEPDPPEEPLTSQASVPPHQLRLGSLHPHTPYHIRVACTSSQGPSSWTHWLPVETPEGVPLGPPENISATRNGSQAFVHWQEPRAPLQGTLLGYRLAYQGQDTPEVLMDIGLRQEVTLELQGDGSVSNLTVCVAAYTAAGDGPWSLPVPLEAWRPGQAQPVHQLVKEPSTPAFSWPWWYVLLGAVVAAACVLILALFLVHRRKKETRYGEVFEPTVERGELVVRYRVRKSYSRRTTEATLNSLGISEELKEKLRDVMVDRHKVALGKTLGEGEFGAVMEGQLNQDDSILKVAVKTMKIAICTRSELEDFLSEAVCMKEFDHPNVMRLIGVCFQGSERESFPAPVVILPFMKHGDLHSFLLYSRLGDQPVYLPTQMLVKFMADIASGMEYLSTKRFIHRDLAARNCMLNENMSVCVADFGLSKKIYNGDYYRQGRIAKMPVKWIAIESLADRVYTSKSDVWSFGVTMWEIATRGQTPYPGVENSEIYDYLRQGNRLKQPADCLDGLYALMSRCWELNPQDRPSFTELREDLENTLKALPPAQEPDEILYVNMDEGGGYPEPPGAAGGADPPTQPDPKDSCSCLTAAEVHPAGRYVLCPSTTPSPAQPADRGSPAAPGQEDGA
Readout Name: kinase still bound, per cent of control (%)

1) Cc1ccc(NC(=O)c2cccc(C(C)(C)C#N)c2)cc1Nc1ccc2ncn(C)c(=O)c2c1 :: 75
2) CCCS(=O)(=O)Nc1ccc(F)c(C(=O)c2c[nH]c3ncc(-c4ccc(Cl)cc4)cc23)c1F :: 8.4
3) CN(C)C/C=C/C(=O)Nc1cccc(Nc2ncc3c(n2)N(C)c2ccccc2C(=O)N3C)c1 :: 7
4) CCN1CCN(Cc2ccc(Nc3ncc4c(n3)N(C)c3ccccc3C(=O)N4C)cc2C(F)(F)F)CC1 :: 11
5) C=CC(=O)Nc1cc(NC(=O)c2ccc(C)c(NC(=O)c3ccno3)c2)cc(C(F)(F)F)c1 :: 100
6) C=CC(=O)Nc1cccc(Nc2nc(N[C@H]3CC[C@H](N(C)C)CC3)nc3c2ncn3C(C)C)c1 :: 40
7) COc1cc(C(=O)NC2CCN(C)CC2)ccc1Nc1ncc2c(n1)N(C1CCCC1)CCC(=O)N2C(C)C :: 100
8) O=C(O)c1ccc(Nc2ncc3c(n2)-c2ccc(Cl)cc2C(c2c(F)cccc2F)=NC3)cc1 :: 4.4
9) N#Cc1c(NC(=O)c2cccc3ccccc23)sc2c1CCCC2 :: 88
10) C[C@@H](Oc1cc(-n2cnc3ccc(CN4CCN(C)CC4)cc32)sc1C(N)=O)c1ccccc1C(F)(F)F :: 41
11) O=C1Nc2ccc(I)cc2/C1=C/c1cc(Br)c(O)c(Br)c1 :: 100
12) O=C(NOC[C@H](O)CO)c1ccc(F)c(F)c1Nc1ccc(I)cc1F :: 83
13) CCC(=O)N1CCN(c2ccc(-n3c(=O)ccc4cnc5ccc(-c6cnc7ccccc7c6)cc5c43)cc2C(F)(F)F)CC1 :: 46
14) Cn1c(=O)n(-c2ccc(C(C)(C)C#N)cc2)c2c3cc(-c4cnc5ccccc5c4)ccc3ncc21 :: 100
15) COc1cc(C(=O)NC2CCN(C)CC2)ccc1Nc1ncc2c(n1)N(C1CCCC1)C(C)CC(=O)N2C (centres undefined) :: 100
16) Cc1cc([C@@H](C)Nc2ccccc2C(=O)O)c2nc(N3CCOCC3)cc(=O)n2c1 :: 86
17) Cc1ccc2nc(NCCN)c3ncc(C)n3c2c1 :: 100
18) Nc1ccc(-c2ccc3ncc4ccc(=O)n(-c5cccc(C(F)(F)F)c5)c4c3c2)cn1 :: 74
19) O=C(NC1CC1)c1cccc(-c2ccc3c(NC(=O)C4CC4)n[nH]c3c2)c1 :: 54

###

biological target: MERTK (human); test: KINOMEscan competition binding; details: compound 10.0 µM
Cut-off 70% on kinase still bound, per cent of control: below means criterion met, at or above means criterion not met.

1) O=C(O)c1ccc(Nc2ncc3c(n2)-c2ccc(Cl)cc2C(c2c(F)cccc2F)=NC3)cc1 :: criterion met
2) Cc1ccc(NC(=O)c2cccc(C(C)(C)C#N)c2)cc1Nc1ccc2ncn(C)c(=O)c2c1 :: criterion not met
3) C=CC(=O)Nc1cccc(Nc2nc(N[C@H]3CC[C@H](N(C)C)CC3)nc3c2ncn3C(C)C)c1 :: criterion met
4) COc1cc(C(=O)NC2CCN(C)CC2)ccc1Nc1ncc2c(n1)N(C1CCCC1)CCC(=O)N2C(C)C :: criterion met
5) CC[C@@H]1C(=O)N(C)c2cnc(Nc3ccc(C(=O)NC4CCN(C)CC4)cc3OC)nc2N1C1CCCC1 :: criterion not met
